tested on: L1210 leukemia ip in BDF1 mice, survival T/C; experiment: NCI In Vivo Anticancer Drug Screen. Data for tumor model L1210 Leukemia (intraperitoneal) in B6D2F1 (BDF1) mice; details: endpoint: mean survival time; dose: 75.0 mg/kg/injection; schedule: Q01DX001 (ip); vehicle: saline; higher = longer survival
Inconclusive results and toxic doses are left out.
Could you please report measured T/C for the items listed next?

IN: Quick one: T/C for O=C(O)C1C(C(=O)O)C2C=CC1C21CCCC1 (stereo not drawn) ?
OUT: 97 % of control

IN: What does the data say about its T/C? Entry: `C=C(C)C1(CCCCC)C(=O)NC(=O)NC1=O`
OUT: 101 % of control

IN: Quick one: T/C for CCN1C(/C=C/c2ccc(O)c3ncccc23)CCC2CC(C)CCC21 (stereo not drawn) ?
OUT: 117 % of control

IN: Entry under review: `O=C(O)c1ccc2c(c1Sc1ccccc1)C(=O)c1ccccc1C2=O` . Reported T/C?
OUT: 104 % of control

IN: I'd like to know its T/C. The compound in question is `C=CS(=O)(=O)CCCCCCCC`
OUT: 97 % of control

IN: GET /values?readout=T/C&item= COc1ccc(CCNCC(O)CSc2cccc(C)c2)cc1OC (stereo not drawn)
OUT: 101 % of control

IN: State the recorded T/C for this entry: `O=C(O)c1ccc(CNCc2ccccc2)cc1`
OUT: 102 % of control

IN: Report T/C for `CCN(CC)CCNc1nc2ccc(C(=O)O)cc2s1` please.
OUT: 100 % of control

IN: Could you share which T/C value was measured for `CCCCCCC1N(Cc2ccccc2N(C)C)CCCN1Cc1ccccc1N(C)C` ?
OUT: 94 % of control

IN: If you can, please state the reported T/C value of COc1ccc2c3c1OC1C(=O)CCC4C(C2)N(C)CCC314 (stereo not drawn) .
OUT: 94 % of control

IN: Can you look up the measured T/C of C=CC1(C)CCC2C(=CCC3C(C)(COC4OC(CO)C(O)C(O)C4O)C(O)CCC23C)C1 (stereo not drawn) for me?
OUT: 102 % of control

IN: Sample `O=P(O)(O)CCC(F)(F)C(F)(F)C(F)(F)C(F)(F)C(F)(F)C(F)(F)C(F)(F)F` — what was its T/C?
OUT: 96 % of control

IN: So what does the record say about T/C for COC(C)C1C([N+](C)(C)C)CS1(=O)=O (stereo not drawn) ?
OUT: 97 % of control

The origin of these recorded values is PubChem BioAssay AID248.
